Kindly supply the reported growth inhibition values for the records listed here.
experiment: NCI Yeast Anticancer Drug Screen. Data for the bub3 strain (AID 167); conditions: S. cerevisiae bub3 mutant strain, at 50.0 µM (retest, dose inferred, filed as 5.0), hits give high values
About 79,000 compounds went through this panel and 15% of them were active in at least one assay; those are over-represented in the sample as a whole.
Entry rule: numbers only, all in %.

Value of measured growth inhibition for the entry C=CC(=O)OCCOCc1ccccc1 : 12

Value of measured growth inhibition for the entry Nc1nc2ncc(CNc3ccc(C(=O)NC(CCC(=O)NC(CCC(=O)NC(CCC(=O)NC(CCC(=O)NC(CCC(=O)O)C(=O)O)C(=O)O)C(=O)O)C(=O)O)C(=O)O)cc3)nc2c(=O)[nH]1 (stereo not given) : -2

Value of measured growth inhibition for the entry Cc1ccc(NC(=S)C#N)cc1Cl : 45

Value of measured growth inhibition for the entry CCC(C)(C)N(CC(=O)O)CC(=O)O : -1

Value of measured growth inhibition for the entry CCOC(=O)c1[nH]c(C#N)c(C(=O)OCC)c1C : 48

Value of measured growth inhibition for the entry Nc1ccc(Oc2ccccc2)c(Cl)c1 : 52

Value of measured growth inhibition for the entry Nc1ncnc2c(C3OC(CO)C(O)C3O)c[nH]c12 (stereo not given) : 94

Value of measured growth inhibition for the entry CCc1oc2ccccc2c1C(=O)c1cc(Br)c(O)c(Br)c1 : 99

Value of measured growth inhibition for the entry N#C/C(=N\Nc1ccc(Cl)cc1)C(=O)C1CC1 : 78

Value of measured growth inhibition for the entry c1ccc(C2NCCNC2c2ccccc2)cc1 (stereo not given) : 5

Value of measured growth inhibition for the entry COC(=O)c1nc(=S)[nH]c(C(=O)OC)c1C(=O)c1ccc(Cl)c(Cl)c1 : 98

Value of measured growth inhibition for the entry Cc1ccc2c(c1)sc(-c1ccc(N(C)C)cc1)[n+]2C : 98

Value of measured growth inhibition for the entry CCN(CC)CC(O)c1cc(-c2ccc(Cl)cc2)nc2cc(Cl)ccc12 (stereo not given) : 99

Value of measured growth inhibition for the entry O=C1/C(=C/c2ccccn2)CCc2ccccc21 : 98

Value of measured growth inhibition for the entry Oc1ccc(Br)cc1Sc1cc(Br)ccc1O : 99

Value of measured growth inhibition for the entry CCN1/C(=C/C(C)=C/c2sc3ccc4ccccc4c3[n+]2CC)Sc2ccc3ccccc3c21 : 10

Value of measured growth inhibition for the entry CCCCCCCCCCCC(=O)OC(C)C(=O)NCCCC (stereo not given) : 9

Value of measured growth inhibition for the entry Clc1ccccc1C(c1ccccc1)(c1ccccc1)n1ccnc1 : 99

Value of measured growth inhibition for the entry O=C(CO)NCCO : -5

Value of measured growth inhibition for the entry C/C(=N\NC(=S)N1CCC1)c1ccccn1 : 98

Value of measured growth inhibition for the entry COc1ccc(/C(C#N)=C/c2cccc(N)c2)cc1 : 42

Value of measured growth inhibition for the entry CCCC[n+]1c(/C=C\c2c(OC)cc(OC)cc2OC)ccc2ccccc21 : 98

Value of measured growth inhibition for the entry N#CCc1cccc2ccccc12 : -4

Value of measured growth inhibition for the entry O=C1C=CC(=O)N1c1cccc2c1CCCC2 : 99

Value of measured growth inhibition for the entry CN(C)CCN(C)CC(C)(C)C(=O)/C=C/c1ccc(Cl)c(Cl)c1 : 99

---

test: NCI Yeast Anticancer Drug Screen. Data for the cln2 rad14 strain (AID 165);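 also: 0% = growth equal to vehicle treated cultures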; conditions: S. cerevisiae cln2 rad14 strain, at 50.0 µM, hits give high values
This is part of a sample that, as a whole, favours compounds with a hit. Of some 79,000 tested, about 15% had one in any assay.
Just so you know, the groups by growth inhibition go like this: low end (below 30%), middle (30% to below 80%), high end (80% or more)

Enquiry: Which growth inhibition band matches CCOc1ccc(C(CN2CCOCC2)C(C)=O)cc1OC (stereo unspecified) ?
Return: middle

Enquiry: Which growth inhibition band matches COc1cc(/C=C2\SC(=S)N(/C=C/c3nc4ccccc4[nH]c3=O)C2=O)cc(OC)c1OC ?
Return: middle

Enquiry: Which growth inhibition band matches CCCCCCCCCCCCCCCC[N+]1(C)CCCC1c1cccnc1 (stereo unspecified) ?
Return: low end

Enquiry: Which growth inhibition band matches OC(c1cc2ccc(C(F)(F)F)cc2c2cc(C(F)(F)F)ccc12)C1CCCCN1 (stereo unspecified) ?
Return: high end

Enquiry: Which growth inhibition band matches CCc1cccc(CC)c1N1C(=O)C=CC1=O ?
Return: high end

Enquiry: Which growth inhibition band matches N#C/C(=N\Nc1ccc(Cl)cc1)C(=O)C1CC1 ?
Return: high end

Enquiry: Which growth inhibition band matches C[C@@]1(CO)[C@H](O)CC[C@@]2(C)[C@H]1CC[C@H]1C[C@@H]3C[C@@]12CC[C@@]3(O)COC(=O)CN ?
Return: low end

Enquiry: Which growth inhibition band matches CCCCCCCCCCCCN1C(C)=CS/C1=C\C=C\c1scc(C)[n+]1CCCCCCCCCCCC ?
Return: high end

Enquiry: Which growth inhibition band matches N#CCc1cccc2ccccc12 ?
Return: low end
